Tested on: Lung_H292
Assay Comment: Cell proliferation assay (ATPlite)
Format: cell-based
Assay Setup: 72 hours, 0.5% fetal bovine serum
Measure Name: IC50

query: Give its IC50 value. Item: `C#Cc1cccc(Nc2ncnc3cc(OC)c(OCCCCCCC(=O)NO)cc23)c1`
result: < 100 nM

----------
System: Pancreas_HPAC
Assay Comment: Cell proliferation assay (ATPlite)
Format: cell-based
Assay Setup: 72 hours, 0.5% fetal bovine serum
Protocol: A representative number of compounds were assayed against several different cell lines using the cell proliferation assay: Cell Proliferation Assay: Cancer cell lines were plated at 5,000 to 10,000 per well in 96-well flatted bottomed plates with various concentration of compounds. The cells were incubated with compounds for 72 hours in the presence of 0.5% of fetal bovine serum. […] 25 μl of substrate solution was then added to the well and subsequently the luminescence was measured.
pIC50: −log10 of the molar value.
Reported pIC50 is given for each of the following compounds.

Example cases with answers are listed next.
[
  {
    "Compound": "COCCOc1cc2ncnc(Nc3ccc(F)c(Cl)c3)c2cc1NC(=O)CCCCCCC(=O)NO [Compound 70]",
    "pIC50": "< 5.00"
  },
  {
    "Compound": "COc1cc2ncnc(NCc3ccccc3)c2cc1OCCCCCCC(=O)NO [Compound 85]",
    "pIC50": "5.00 to 6.00"
  },
  {
    "Compound": "O=C(CCCCCCOc1ccc2ncnc(Nc3ccc(F)c(Cl)c3)c2c1)NO [Compound 18]",
    "pIC50": "5.00 to 6.00"
  },
  {
    "Compound": "COc1cc2ncnc(N[C@H](C)c3ccccc3)c2cc1OCCCCCC(=O)NO [Compound 77]",
    "pIC50": "< 5.00"
  },
  {
    "Compound": "COc1cc2ncnc(Nc3ccc(F)c(Cl)c3)c2cc1OCCOc1ccc(/C=C/C(=O)NO)cc1 [Compound 66]",
    "pIC50": "5.00 to 6.00"
  },
  {
    "Compound": "COc1cc2ncnc(N[C@H](C)c3ccccc3)c2cc1OCCCCCCC(=O)NO [Compound 79]",
    "pIC50": "< 5.00"
  },
  {
    "Compound": "COc1cc2ncnc(Nc3ccc(F)c(Cl)c3)c2cc1NC(=O)CCCCCCC(=O)NO [Compound 40]",
    "pIC50": "5.00 to 6.00"
  }
]

query: Data request, read-out pIC50, for C#Cc1cccc(Nc2ncnc3cc(OC)c(OCCCCCCC(=O)NO)cc23)c1 [Compound 12]
result: 5.00 to 6.00

Ref: patent US8119616B2
